// provenance: PubChem BioAssay AID256

Parameter: T/C. Scope: all listed entries.
# Tested on: CD2F1 mice, L1210 leukemia ip, survival T/C
# EXPERIMENT SUMMARY: NCI In Vivo Anticancer Drug Screen. Data for tumor model L1210 Leukemia (intraperitoneal) in CD2F1 (CDF1) mice
# RUN CONDITIONS: endpoint: mean survival time; dose: 200.0 mg/kg/injection; schedule: Q04DX002 (ip); vehicle: saline with Tween-80; higher = longer survival
Inconclusive results and toxic doses are left out.
MEASUREMENT NAME: T/C

* C#CCSc1c(Cl)c(Cl)c(Cl)c(Cl)c1Cl | 95 % of control
* COC(=O)C1C(C(C)=O)C2C(=O)C3C(C(=O)OC)C(C(=O)OC)C3C(=O)C12 (stereo not drawn) | 96 % of control
* COc1ccc(C2=CSc3ccccc3N2)cc1 | 104 % of control
* Cc1c2c(c(C)c3c(C)nccc13)Cc1ccccc1-2 | 92 % of control
* Oc1ccccc1C=NC1CCCCC1N=Cc1ccccc1O.[Ni] (stereo not drawn) | 97 % of control
* CC(=O)C(C(=N)C#N)C(C)=O | 89 % of control
* O=C(Cn1ccc(=O)[nH]c1=O)c1c[nH]c2ccccc12 | 108 % of control
* CCOc1cc(C)cc(C(=O)O)c1 | 90 % of control
* CCCCCCCCCCCCOc1ccc(F)cc1C | 93 % of control
* O=[N+]([O-])c1cc(Cl)cc2c1NP(=S)(c1ccccc1)N2 (stereo not drawn) | 98 % of control
* O=C(NC/C=C/Br)Oc1cccc2ccccc12 | 93 % of control
* CSc1ccc(OC(=O)C(C)NC(=O)C(CO)NC(=O)OCc2ccccc2)cc1 (stereo not drawn) | 95 % of control
* O=c1[nH]c(=O)n(C2OC(CO)C(O)C2O)cc1Br (stereo not drawn) | 101 % of control
* O=C1OC2CCC(Br)CC2C=C1C1CCC([N+](=O)[O-])CC1 (stereo not drawn) | 100 % of control
* Cc1ccc(NCC(O)C(O)C(O)CO)cc1C (stereo not drawn) | 103 % of control
* COc1ccncn1 | 95 % of control
* NNC(=O)C(N)Cc1cnc[nH]1 (stereo not drawn) | 122 % of control
* COc1ccc(NC(=O)Oc2ccc(Cl)cc2C)cc1 | 94 % of control
* C/C(=N\Nc1ccc2ccccc2n1)c1ccccc1O | 98 % of control
* CC(C)c1ccc2c(c1)CCC(C(Cl)Cl)C2(C)C (stereo not drawn) | 111 % of control
* CCCCCOc1ccccc1Cl | 98 % of control
* CCCCNP(=S)(NCCCC)NCCCC | 94 % of control
* COc1ccc(NC(=O)Nc2ccccc2C)c(OC)c1 | 90 % of control
* COc1cc(/C=C(\C#N)c2ccc([N+](=O)[O-])cc2)ccc1O | 87 % of control
* COc1cc(C2=N/C(=C\c3ccc(Cl)c(Cl)c3)C(=O)O2)cc(OC)c1OC | 95 % of control
* COC(=O)C1C(=O)CC2N(C)C1C(C)(C)C2(C)C (stereo not drawn) | 107 % of control
* Cc1ccc(C2=CC(=O)C(c3ccc(C)cc3C)=CC2=O)c(C)c1 | 93 % of control
* CC(C)C1CCC(C)C(C(O)(C(F)(F)F)C(F)(F)F)C1O (stereo not drawn) | 98 % of control
* CC1(C)CC(O)C2(C)CCC3(C)C(=CCC4C5(C)CCC(O)C(C)(CO)C5CCC43C)C2C1 (stereo not drawn) (tested in a mixture with another compound) | 98 % of control
* C/C(=C/Cc1c(O)c(C)c2c(c1O)C(=O)OC2)CCC(=O)NCCc1ccccc1 | 87 % of control
* CC1(c2ccccc2)C=CC(=O)CC1 (stereo not drawn) | 101 % of control
* O=C(COc1ccccc1[N+](=O)[O-])CN1C(=O)c2ccccc2C1=O | 91 % of control
* CC1CN1P(=O)(N1CC1C)N1CC1C.CC1CN1P(=O)(N1CC1C)N1CC1C.CC1CN1P(=O)(N1CC1C)N1CC1C.CC1CN1P(=O)(N1CC1C)N1CC1C.CC1CN1P(=O)(N1CC1C)N1CC1C.CC1CN1P(=O)(N1CC1C)N1CC1C.[Fe+3].[O-][Cl+3]([O-])([O-])O (stereo not drawn) | 98 % of control

====

# System: CD2F1 mice, L1210 leukemia ip, survival T/C
# EXPERIMENT SUMMARY: NCI In Vivo Anticancer Drug Screen. Data for tumor model L1210 Leukemia (intraperitoneal) in CD2F1 (CDF1) mice
# RUN CONDITIONS: endpoint: mean survival time; dose: 200.0 mg/kg/injection; schedule: Q04DX002 (ip); vehicle: saline; higher = longer survival
Toxic doses and inconclusive results are not listed.
MEASUREMENT NAME: T/C

* CN(C)C=O | 96 % of control
* CC(=N)N(C)CC(=O)O | 103 % of control
* COC(=O)C1(C)CCOC1=O (centres undefined) | 98 % of control
* COC(=O)C1CCOC1=O (centres undefined) | 98 % of control

====

# Tested on: CD2F1 mice, L1210 leukemia ip, survival T/C
# EXPERIMENT SUMMARY: NCI In Vivo Anticancer Drug Screen. Data for tumor model L1210 Leukemia (intraperitoneal) in CD2F1 (CDF1) mice
# RUN CONDITIONS: endpoint: mean survival time; dose: 400.0 mg/kg/injection; schedule: Q04DX003 (ip); vehicle: other; higher = longer survival
Toxic doses and inconclusive results are not listed.
The entries below come with measured T/C values attached.
MEASUREMENT NAME: T/C

* CC(C)OC(CCC#N)c1ccc(Cl)cc1 (configuration not stated) | 93 % of control
* CCCNC(C)(C)C(SS)c1ccc(C(F)(F)F)cc1 (configuration not stated) | 90 % of control
* CCCCCCCCCCC(=O)CCCCCC | 118 % of control
* O=S(=O)(c1ccccc1)C(Cl)Cl | 100 % of control
* CCOn1nc(-c2ccccc2)oc1=O | 116 % of control
* CCCCOc1ccc(OCCCC)cc1 | 101 % of control
* O=C(NC/C=C/Br)NC1CCCc2ccccc21 (configuration not stated) | 96 % of control

====

# System: CD2F1 mice, L1210 leukemia ip, survival T/C
# EXPERIMENT SUMMARY: NCI In Vivo Anticancer Drug Screen. Data for tumor model L1210 Leukemia (intraperitoneal) in CD2F1 (CDF1) mice
# RUN CONDITIONS: endpoint: mean survival time; dose: 100.0 mg/kg/injection; schedule: Q04DX002 (ip); vehicle: saline; higher = longer survival
# Protocol: The antitumor activity of compounds was measured in mice bearing transplantable tumors. Survival or tumor size were measured and the results are expressed as the measurement made in the treated group (T) divided by the measurement made in the vehicle treated control group (C). The tumor model used in this assay is L1210 Leukemia (intraperitoneal) in CD2F1 (CDF1) mice
Inconclusive results and toxic doses are left out.
MEASUREMENT NAME: T/C

• O=S(=O)(O)c1cccnc1 = 94 % of control
• Nc1ccccc1-c1ccccc1N = 87 % of control
• N#CS.N=C=S.N=C=S.[Co+3].[NH-]CC[NH-].[NH-]CC[NH-] = 111 % of control
• CN(C)CC(N)C(=O)O (stereo not drawn) = 92 % of control
• C1CO[P+]2(O1)OCCO2 = 95 % of control
• O.O.O=S(=O)(O)O.[Co+3].[NH2-].[NH2-].[NH2-].[NH2-] = 108 % of control
• Nc1[nH]c(=O)[nH]c(=O)c1N = 97 % of control
• CN(C)C=O = 111 % of control

====

# T/C per record follows
# Tested on: CD2F1 mice, L1210 leukemia ip, survival T/C
# EXPERIMENT SUMMARY: NCI In Vivo Anticancer Drug Screen. Data for tumor model L1210 Leukemia (intraperitoneal) in CD2F1 (CDF1) mice
# RUN CONDITIONS: endpoint: mean survival time; dose: 200.0 mg/kg/injection; schedule: Q04DX003 (ip); vehicle: saline with Tween-80; higher = longer survival
Toxic doses and inconclusive results are not listed.
MEASUREMENT NAME: T/C

• N#CC(C#N)=Cc1cccc(CC(O)(C(F)(F)F)C(F)(F)F)n1 = 94 % of control
• CCCCNCC(C)C(=O)OC (stereo not drawn) = 98 % of control
• CC(C)(C)c1cc(C(C)(C)C)c(C(=O)O)c(C(C)(C)C)c1Cl = 97 % of control
• O=C(c1ccccc1)N(C(=O)c1ccccc1)c1cccc[n+]1[O-] = 97 % of control
• CCCCCCCCCCCCCC(=O)N1CCOCC1 = 95 % of control
• CCCCCCCCC(C(=O)c1ccccc1)C(O)(C(F)(F)F)C(F)(F)F (stereo not drawn) = 111 % of control
• O/N=C1/CCCc2ccccc21 = 97 % of control
• CCOC(=O)c1ccc(NC(=O)NC)cc1 = 93 % of control
